- Test system: TCCSUP
- protocol summary: Cell viability assay (ATPlite)
- Format: cell-based
- experimental setup: Homo sapiens, TCC-SUP; TCCSUP cell line, 72 hours incubation
measurement label: pIC50
Give bare numbers, as −log10 of the molar value.

Suppose we examine the compound O=C(c1ccc(Oc2ccccc2)cc1Cl)c1c[nH]c2ncnc(N[C@@H]3CC[C@@H](CO)OC3)c12 [nemtabrutinib] ; what pIC50 value has been reported?
5.11

---

- assayed target: TSSK1 (Homo sapiens, UniProt Q9BXA7)
- Construct: purchased Carna Biosciences
- Sequence (Q9BXA7 whole entry): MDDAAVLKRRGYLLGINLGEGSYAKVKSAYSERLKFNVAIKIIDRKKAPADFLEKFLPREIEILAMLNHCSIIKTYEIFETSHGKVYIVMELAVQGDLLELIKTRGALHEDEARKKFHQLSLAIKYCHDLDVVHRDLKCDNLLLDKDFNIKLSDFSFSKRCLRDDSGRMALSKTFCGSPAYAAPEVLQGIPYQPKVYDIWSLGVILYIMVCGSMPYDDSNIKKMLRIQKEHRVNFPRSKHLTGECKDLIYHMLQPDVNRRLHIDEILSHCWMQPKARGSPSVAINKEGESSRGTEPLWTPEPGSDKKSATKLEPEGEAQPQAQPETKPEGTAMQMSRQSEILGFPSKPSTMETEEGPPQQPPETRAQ
- protocol summary: Kinase panel profiling at 1 µmol/L (mobility shift assay, Carna)
- Type: biochemical
- experimental setup: 1 µmol/L of BTK inhibitor
measurement label: Percentage inhibition of kinase enzyme activity

Answered cases to consult:
{"columns": ["chemical structure", "test result"],
 "data": [
  ["O=C(c1ccc(Oc2ccccc2)cc1Cl)c1c[nH]c2ncnc(N[C@@H]3CC[C@@H](CO)OC3)c12", "5.68%"],
  ["COc1ccc(F)cc1C(=O)NCc1ccc(-c2nn([C@@H](C)C(F)(F)F)c(N)c2C(N)=O)cc1", "-0.58%"],
  ["C=CC(=O)N1CCC[C@@H](n2nc(-c3ccc(Oc4ccccc4)cc3)c3c(N)ncnc32)C1", "9.10%"]
]}

Here is the next item to consider.
Suppose we examine the molecule "CC#CC(=O)N1CCC[C@H]1c1nc(-c2ccc(C(=O)Nc3ccccn3)cc2)c2c(N)nccn12" ; what Percentage inhibition of kinase enzyme activity value has been reported?
-7.15%
